target: PLP prior to Polymerization (Achromobacter lyticus, UniProt P15636); test: Activity to substrates (substrate specificity), PLP prior to polymerization; assay type: biochemical; conditions: enzyme: PLP prior to Polymerization; pH 9.5, 30°C; Benzoyl lysine-p-nitroanilide = 100
Sequence (P15636 206-473 limits assumed): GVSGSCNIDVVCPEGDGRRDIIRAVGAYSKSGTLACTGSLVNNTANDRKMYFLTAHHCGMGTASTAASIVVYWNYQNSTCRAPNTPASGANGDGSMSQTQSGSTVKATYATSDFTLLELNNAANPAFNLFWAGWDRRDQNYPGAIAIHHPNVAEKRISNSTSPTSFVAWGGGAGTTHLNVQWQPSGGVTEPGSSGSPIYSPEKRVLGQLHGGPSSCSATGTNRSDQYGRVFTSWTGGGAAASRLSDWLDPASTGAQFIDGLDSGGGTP
Experimental endpoint: Relative Activity (%)
Return type: number; implicit unit %.

Quickly give me recorded Relative Activity for CC(C)C[C@H](N)C(=O)Nc1ccc([N+](=O)[O-])cc1 [Leucine-p-nitroanilide]
0.00

Consider the molecule CC(=O)N[C@@H](Cc1ccccc1)C(=O)Nc1ccc([N+](=O)[O-])cc1 [Acetylphenylalanine-p-nitroanilide] and give its recorded Relative Activity.
0.00

State, in one line, measured Relative Activity of N[C@@H](CCC(=O)O)C(=O)Nc1ccc([N+](=O)[O-])cc1 [Glutamic acid-p-nitroanilide]
0.00

Supply measured Relative Activity of NCCCC[C@H](N)C(=O)Nc1ccc([N+](=O)[O-])cc1 [Lysine-p-nitroanilide] in your reply.
2.4

Read the entry C[C@H](N)C(=O)Nc1ccc([N+](=O)[O-])cc1 [Alanine-p-nitroanilide] and write its reported Relative Activity.
0.00
